# Subject of test: Cannabinoid receptor 2 (Homo sapiens, UniProt P34972)
# Sequence (P34972 whole entry): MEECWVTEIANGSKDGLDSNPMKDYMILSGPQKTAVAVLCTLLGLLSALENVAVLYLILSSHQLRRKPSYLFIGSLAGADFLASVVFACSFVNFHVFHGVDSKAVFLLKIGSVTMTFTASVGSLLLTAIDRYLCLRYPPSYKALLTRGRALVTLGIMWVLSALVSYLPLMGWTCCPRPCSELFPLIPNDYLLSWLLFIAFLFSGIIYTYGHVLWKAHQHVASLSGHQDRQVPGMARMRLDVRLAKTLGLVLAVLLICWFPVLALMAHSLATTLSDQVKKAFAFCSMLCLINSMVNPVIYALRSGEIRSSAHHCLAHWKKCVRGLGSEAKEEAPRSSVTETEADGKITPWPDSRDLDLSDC
# Test summary: Displacement of [3H]CP55940 from human CB2 receptor transfected in HEK293 cells after 90 mins by liquid scintillation spectrophotometry

[
  {
    "Smiles notation": "CCCCCCC(C)(C)C1=CC2=C(C(=O)C1=O)c1nn(C)cc1C(C)(C)O2",
    "Ki [nM]": 597
  },
  {
    "Smiles notation": "CCCCCCC(C)(C)C1=CC2=C(C(=O)C1=O)c1[nH]ncc1C(C)(C)O2",
    "Ki [nM]": 398
  },
  {
    "Smiles notation": "CCCCCCC(C)(C)C1=CC2=C(C(=O)C1=O)c1c(cnn1CC)C(C)(C)O2",
    "Ki [nM]": 529
  }
]
